Each entry below lists one item and its recorded Cmax, Ratio Predicted/Observed, Nonobese value.
Assay: PBPK model virtual trials matched to the observed studies (model verification, nonobese vs obese)
Design: species or system human
Settings: nonobese individuals
Description: We took several steps to analyse the impact of obesity on the ARVs exposure and response. First, we implemented our in-house PBPK model with our recently published virtual White obese population to simulate the pharmacokinetics of ARVs in nonobese and obese individuals. […] Finally, the clinical relevance of obesity-related changes on drug response was evaluated by analyzing HIV viral load and the corresponding TDM values in obese and nonobese individuals in the SHCS. […]
Keep it simple and answer with nothing but the number.

> print(dat)
                                   molecule                                    metric  quantitative.readout
1  C[C@H](Cn1cnc2c(N)ncnc21)OCP(=O)(O)O [Tenofovir, tenofovir]  Cmax, Ratio Predicted/Observed, Nonobese                  1.00
2  Nc1nc(=O)n([C@@H]2CS[C@H](CO)O2)cc1F [Emtricitabine, emtricitabine]  Cmax, Ratio Predicted/Observed, Nonobese                  0.99
3  Cc1cc(/C=C/C#N)cc(C)c1Nc1ccnc(Nc2ccc(C#N)cc2)n1 [Rilpivirine, rilpivirine]  Cmax, Ratio Predicted/Observed, Nonobese                  0.93

Query Cn1c(Cn2ccc(C(F)(F)F)c(Oc3cc(Cl)cc(C#N)c3)c2=O)n[nH]c1=O [Doravirine, doravirine] yields Cmax, Ratio Predicted/Observed, Nonobese of 1.10

Query O=C(NCc1c(F)cc(F)cc1F)c1cn2c(c(O)c1=O)C(=O)N1[C@H]3CC[C@H](C3)O[C@@H]1C2 [Bictegravir, bictegravir] yields Cmax, Ratio Predicted/Observed, Nonobese of 0.87
